Some compounds, each annotated with its measured pEC50.
# measurement-target: recombinant GPR52 (Homo sapiens, UniProt Q9Y2T5)
# Sequence (Q9Y2T5 whole entry): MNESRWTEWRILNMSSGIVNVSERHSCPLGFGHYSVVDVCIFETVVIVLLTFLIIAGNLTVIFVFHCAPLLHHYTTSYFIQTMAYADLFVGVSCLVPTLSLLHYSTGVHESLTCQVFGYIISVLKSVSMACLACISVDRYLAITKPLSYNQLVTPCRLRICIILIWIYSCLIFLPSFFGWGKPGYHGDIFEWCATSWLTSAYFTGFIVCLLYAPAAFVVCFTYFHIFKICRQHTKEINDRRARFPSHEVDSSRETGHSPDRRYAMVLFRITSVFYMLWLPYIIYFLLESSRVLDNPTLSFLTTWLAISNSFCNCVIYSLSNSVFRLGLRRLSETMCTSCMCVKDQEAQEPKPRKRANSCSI
# test: HTRF cAMP assay for direct cAMP measurement
# assay-context: mean EC50; CHO-K1 or HEK293 cells stably expressing recombinant GPR52
Keep it numeric: pEC50 is minus log10 of the concentration in mol/L.

For the compound O=C(NCCO)c1cccc2c1CCN2c1ccnc(Cc2cc(F)cc(Cl)c2)c1 , what pEC50 is on record?
7.89

Please give the measured pEC50 for this compound: COc1ccc(Cc2ccnc(N3CCc4c3ccc(F)c4C(=O)NCCNC(C)=O)c2)cc1F
7.96

# pEC50 lookup, item CNC(=O)c1cccc2c1CCN2c1cncc(Cc2cccc(C(F)(F)F)c2)c1
8.13

Suppose we examine the compound CN(C)CC(O)CNC(=O)c1cccc2c1CCN2c1cc(Cc2cc(F)c(F)c(F)c2)ccn1 (stereo not shown) ; what pEC50 value has been reported?
8.17

Source of measurements: patent US9676758B2
